- System: Mycosphaerella arachidis (syn. Cercospora arachidicola)
- EXPERIMENT_NOTES: Mycosphaerella arachidis (Brown Leaf Spot of Groundnut) growth inhibition, microtiter plate, photometric
- Assay type: cell-based
- CONDITION_SET: 0.0078125 ppm AI, alone
MEASURE: AVERAGE DEAD IN % (%)
Reply with just the number (in %).

Some solved cases for reference:
COMPOUND: CO/C=C(/C(=O)OC)c1ccccc1Oc1cc(Oc2ccccc2C#N)ncn1 [Azoxystrobin, reference compound]
UNIT_INFO: %
TEST_RESULT: 0
--
COMPOUND: CC1COC(Cn2cncn2)(c2ccc(Oc3ccc(Cl)cc3)cc2Cl)O1 (stereo not shown)
UNIT_INFO: %
TEST_RESULT: 50
--
COMPOUND: CC(C)C1C2CCC1c1c(NC(=O)c3cn(C)nc3C(F)F)cccc12 (stereo not shown) [Isopyrazam, reference compound]
UNIT_INFO: %
TEST_RESULT: 0

// next item, AVERAGE DEAD IN % requested
For record Cn1cc(C(=O)Nc2cccc3c2C2CCC3C2=C(Cl)Cl)c(C(F)F)n1 (stereo not shown) the listed AVERAGE DEAD IN % is 0
